protocol-details: amyloid nucleation score (Sup35N fusion, yeast selection) (log enrichment); library NNK1; higher = more nucleation; inactive = no reads after selection;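 note: zero at mode of non-aggregating sequences after 7 days selection at 30°C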
parameter: amyloid nucleation score
One number for each entry.

I'm hoping you can list amyloid nucleation score for every substance here, please.
1. HHVAVSLDANLNFFTLWLER
2. THQARVLNNVRALRSTFALL
3. DETWLSLQVNLLLFYSRMDM
4. GIIRKVLAEANLNCKVSSYR
5. IENRFLGVKLIAGCSHGLWS

Result block:
[3.81, 2.5, -0.153, -0.488, -0.241]

---

protocol-details: amyloid nucleation score (Sup35N fusion, yeast selection) (log enrichment); library NNK1; higher = more nucleation; inactive = no reads after selection
Please respond with reported amyloid nucleation score for every item in the list.
One number for each entry.

chain_sequence=SLECLALTFVGYVTGRLMDL quantitative_readout=-1.02
chain_sequence=LCPGFNWESFLVKMVLHFFR quantitative_readout=-0.606
chain_sequence=AVLYLSQFGLNRKRGYTA quantitative_readout=0.582
chain_sequence=RIASSRVFFAFFRSLYMSGW quantitative_readout=0.995
chain_sequence=AFRRCTKSFIL quantitative_readout=-0.427

State recorded amyloid nucleation score for all listed sequences.
1. GSMQQNSFREMEPRDSTGGA
2. MKQALMGVVMIHWGGRSRV
3. ENKLNSPPWMLSLFTFLIVV
4. FYLHNICVRR
5. PDDNMMVLGVSSADNLLIRL

Result block:
1: -0.844; 2: 0.687; 3: -0.242; 4: -0.249; 5: 0.579

Fill in amyloid nucleation score for each of the 2 sequences listed.
1. ESQSRGLMIVNGDFKD
2. FRSGFSLKARSVQMCDRF

Result block:
1: 0.018; 2: 1.26

Data credit: the supplement of paper PMC12042874
